Parameter: TGI. Scope: all listed entries.
# Test system: NCI-H226 lung
# PROTOCOL: NCI tumour cell line growth inhibition, 48 h

// known answers, use as guide
Task: Consider the molecule Oc1c(CN2CCCC2)ccc2cccnc12 . State its measured TGI.
Output: > 64 µM

Task: Consider the molecule O=C1C(=c2ccc(=C3C(=O)c4ccc([N+](=O)[O-])cc4[N+]3=O)cc2)N([O-])c2cc([N+](=O)[O-])ccc21 . State its measured TGI.
Output: > 100 µM

Task: Consider the molecule COc1cc2c(NCCCCCO)ncnc2c(OC)c1OC . State its measured TGI.
Output: > 100 µM

Task: Consider the molecule COC(=O)C12CCC(C)(C)CC1C1=CCC3C4(C)CC(O)C(O)C(C)(C(=O)OC)C4CCC3(C)C1(CO)CC2 (stereo not given) . State its measured TGI.
Output: 38.5 µM

Task: Consider the molecule c1coc(-c2nccc3c2[nH]c2ccccc23)c1 . State its measured TGI.
Output: 95.8 µM

Task: Consider the molecule O=[N+]([O-])c1ccc(/C=C/c2nc3ccc(Cl)cc3[nH]2)cc1 . State its measured TGI.
Output: > 100 µM

Task: Consider the molecule Cn1c(-c2ccc(-c3cc(-c4cccs4)c(-c4cccs4)n3C)cc2)cc(-c2cccs2)c1-c1cccs1 . State its measured TGI.
Output: > 100 µM

Task: Consider the molecule CC(=O)OCC1OC(N2C(=O)NC(=O)C3C=C4CCCCC4=CC32)CC1OC(C)=O (stereo not given) . State its measured TGI.
Output: > 100 µM

Task: Consider the molecule Nc1nc(NCCOCP(=O)(O)O)c([N+](=O)[O-])c(=O)[nH]1 . State its measured TGI.
Output: > 100 µM

Task: Consider the molecule CCOC(=O)c1[nH]cc(C)c1-c1cccn1-c1ccc(Cl)cc1[N+](=O)[O-] . State its measured TGI.
Output: 46.2 µM

---
Task: Consider the molecule CCC12CCCN(Cc3ccccc3)C1c1c(n(C)c3ccccc13)C(CO)C2 (stereo not given) . State its measured TGI.
Output: 104 µM

Task: Consider the molecule O=C([O][Hg][c]1ccccc1)c1ccccc1 . State its measured TGI.
Output: 6.18 µM

Task: Consider the molecule CC1CCCC(C(=O)CC2CC(=O)NC(=O)C2)C1=O (stereo not given) . State its measured TGI.
Output: > 100 µM

Task: Consider the molecule COC(=O)[C@H](CC(C)C)NC(=O)[C@H](Cc1ccccc1)N1CC2C=CC1C2 (stereo not given in full) . State its measured TGI.
Output: > 100 µM

Task: Consider the molecule C/C(=N\Nc1nc2cc(Cl)ccc2s1)c1ccccn1 . State its measured TGI.
Output: > 100 µM

Task: Consider the molecule O=C(Cn1c(C(=O)c2ccc(Cl)cc2)nc(-c2ccc(Cl)cc2)c1-c1ccc(Cl)cc1)c1ccccc1 . State its measured TGI.
Output: > 100 µM

Task: Consider the molecule C=C(C)[C@@H](O)[C@H](O)C[C@H](C)C1CC[C@]2(C)C1=CC[C@@H]1[C@@]3(C)CC[C@@H](OC(C)=O)C(C)(C)[C@@H]3C[C@@H](OC3OC(COC(C)=O)C(O)C(O)C3O)[C@]12C (stereo not given in full) . State its measured TGI.
Output: 10.3 µM

Task: Consider the molecule Cn1cc(C2=C(c3c4n(c5ccccc35)CCNC4)C(=O)NC2=O)c2ccccc21 . State its measured TGI.
Output: > 25 µM

Task: Consider the molecule CSc1cc(Cl)c(C)cc1S(=O)(=O)NC(=O)NNc1ccc(F)cc1 . State its measured TGI.
Output: > 100 µM

Task: Consider the molecule COc1cc2c(cc1OC)C(C#N)N(C(=O)c1ccccc1)C=C2OC(=O)c1ccccc1 (stereo not given) . State its measured TGI.
Output: 51.4 µM

---

Parameter: TGI. Scope: all listed entries.
# Test system: M14 melanoma
# PROTOCOL: NCI tumour cell line growth inhibition, 48 h

// known answers, use as guide
Task: Enter TGI (test system M14 melanoma) for O=C1c2ccccc2C(=O)N1n1c(Cc2ccc(Cl)cc2)n[nH]c1=O
Output: > 100 µM

Task: Enter TGI (test system M14 melanoma) for O=C(CN1CCCC1=O)CS(=O)(=O)c1ccccc1
Output: > 100 µM

Task: Enter TGI (test system M14 melanoma) for ClCCCSSCCCCl
Output: > 100 µM

Task: Enter TGI (test system M14 melanoma) for Fc1cc(F)c(F)c(S)c1F
Output: > 100 µM

Task: Enter TGI (test system M14 melanoma) for Cc1ccccc1NC(=O)Cc1csc(N/N=C2\NC(=O)/C(=C/c3cccc([N+](=O)[O-])c3)S2)n1
Output: 31.3 µM

Task: Enter TGI (test system M14 melanoma) for N#CCCN(CCC#N)c1ccc(/C=C(/NC(=O)c2cc([N+](=O)[O-])ccc2Cl)C(=O)NN)cc1
Output: > 100 µM

Task: Enter TGI (test system M14 melanoma) for O=P(O)(O)c1ccc(-c2ccc(I)cc2)cc1
Output: > 100 µM

Task: Enter TGI (test system M14 melanoma) for N#CC(C#N)=NNc1ccc2cn[nH]c2c1
Output: > 100 µM

Task: Enter TGI (test system M14 melanoma) for COC(=O)c1ccc2nc(-c3cc4ccccc4n3C)n(CCCCOc3cc4c(cc3OC)C(=O)N3CCC[C@H]3C=N4)c2c1
Output: 2.07 µM

Task: Enter TGI (test system M14 melanoma) for CCCCCCCCCCCCCC[n+]1ccccc1
Output: 1.98 µM

Next molecule, please.
Task: Enter TGI (test system M14 melanoma) for CCOC(=O)c1nc2ccc(OC)cc2c2c1Cc1ccccc1-2
Output: > 100 µM

---

Parameter: TGI. Scope: all listed entries.
# System: SNB-75 CNS
# PROTOCOL: NCI tumour cell line growth inhibition, 48 h
Reply with just the number (in µM).

// known answers, use as guide
Task: Enter TGI (test system SNB-75 CNS) for O=Cc1cccc2ccc3ccccc3c12
Output: 43.6

Task: Enter TGI (test system SNB-75 CNS) for O=C(c1ccccc1)C(Cl)C(Cl)c1ccccc1 (stereo not given)
Output: 23.3

---
Task: Enter TGI (test system SNB-75 CNS) for CC(=O)OCC12CN(C#N)C3C4COC(CC41)C1(C(=O)N(C)c4ccccc41)C32 (stereo not given)
Output: 91.4

Task: Enter TGI (test system SNB-75 CNS) for CN(C)Cc1c(O)ccc2c1c1c(n2C)C(=O)c2ccccc2C1=O
Output: 51.8

Task: Enter TGI (test system SNB-75 CNS) for O=C1CC(/C=C/c2ccco2)=C(O)C1=O
Output: 32.9

Task: Enter TGI (test system SNB-75 CNS) for CN1CC=C(c2cc(NC(=O)Nc3ccc(Oc4ccnc(NC(=O)C5CC5)c4)c(F)c3)cc(C(F)(F)F)c2)CC1
Output: 2.95

---

Parameter: TGI. Scope: all listed entries.
# System: A498 renal
# PROTOCOL: NCI tumour cell line growth inhibition, 48 h
Reply with just the number (in µM).

Task: Consider the compound CC1=C/C=C/C(=O)O[C@@H]([C@H](C)[C@H](O)[C@@H](C)NC(=O)C(C)C)[C@H](C)/C=C/C(C)=C/[C@H]2C=CCC[C@@]2(C)\C=C\1 . State its measured TGI.
Output: 32.8

Task: Consider the compound COC(=O)c1ccc2nc(-c3cc4ccccc4n3C)n(CCCCOc3cc4c(cc3OC)C(=O)N3CCC[C@H]3C=N4)c2c1 . State its measured TGI.
Output: 1.73

Task: Consider the compound Cc1ccccc1C1=C(c2cn(C)c3ccccc23)C(=O)NC1=O . State its measured TGI.
Output: 20.7

---

# Test system: UACC-62 melanoma
# PROTOCOL: NCI tumour cell line growth inhibition, 48 h; in the data active = GI50 below about 0.43 µM; inactive = the rest
Thanks in advance; please answer with one of these: 1.0 for active, 0.0 for inactive

Take a look at these entries with their results.
Task: // param item: O=[N+]([O-])c1ccc(/C=C/c2nc3ccc(Cl)cc3[nH]2)cc1 ; yields the recorded call
Output: 0.0

Task: // param item: Oc1c(C(Nc2ccccn2)c2cccc(Oc3ccccc3)c2)ccc2cccnc12 (configuration not stated) ; yields the recorded call
Output: 1.0

Task: // param item: O=C(/C=C/C12c3ccccc3C(c3ccccc31)C1C(=O)N(c3ccc(Cl)cc3)C(=O)C12)c1ccccn1 (configuration not stated) ; yields the recorded call
Output: 1.0

Task: // param item: O=C1Nc2ccccc2/C1=C\c1c(-c2ccccc2)nc2sccn12 ; yields the recorded call
Output: 0.0

Task: // param item: CCC(C)(C)c1cc(O)c(C(C)(C)CC)cc1O ; yields the recorded call
Output: 0.0

---
Task: // param item: COC(=O)c1ccc2nc(-c3cc4ccccc4n3C)n(CCCCOc3cc4c(cc3OC)C(=O)N3CCC[C@H]3C=N4)c2c1 ; yields the recorded call
Output: 1.0

Task: // param item: CC1CCC2C(C)C(=O)OC3OC4(C)CCC1C32OO4 (configuration not stated) ; yields the recorded call
Output: 0.0

Task: // param item: CN(C)C1CCN(Cc2ccc(NC(=O)c3cncc(C#Cc4cnc(N)c5ncccc45)c3)cc2C(F)(F)F)CC1 ; yields the recorded call
Output: 0.0

Task: // param item: C/C(CCC(=O)O)=N/Nc1ccc([N+](=O)[O-])cc1 ; yields the recorded call
Output: 0.0

Task: // param item: COc1ccc2c(c1)N(Cc1ccc(Cl)cc1)CCC2N1CCCC1=O (configuration not stated) ; yields the recorded call
Output: 0.0

Task: // param item: CN1CCN(C(=O)[C@@]2(C)CC[C@]3(C)CC[C@]4(C)C(=CC[C@@H]5[C@@]6(C)CCC(=O)NC(C)(C)[C@@H]6CC[C@]54C)[C@@H]3C2)CC1 ; yields the recorded call
Output: 0.0

Task: // param item: CN1CC=C(c2cc(NC(=O)Nc3ccc(Oc4ccnc(NC(=O)C5CC5)c4)c(F)c3)cc(C(F)(F)F)c2)CC1 ; yields the recorded call
Output: 0.0

Task: // param item: C[C@H](c1ccc(F)cc1CCCC(=O)O)N(c1cc(F)ccc1F)S(=O)(=O)c1ccc(Cl)cc1 ; yields the recorded call
Output: 0.0
